Numbers sourced from patent US20030229005A1.

Biological target: T1, collagenase 1 (UniProt P03956 100-469, limits assumed)
T1 sequence (looked up): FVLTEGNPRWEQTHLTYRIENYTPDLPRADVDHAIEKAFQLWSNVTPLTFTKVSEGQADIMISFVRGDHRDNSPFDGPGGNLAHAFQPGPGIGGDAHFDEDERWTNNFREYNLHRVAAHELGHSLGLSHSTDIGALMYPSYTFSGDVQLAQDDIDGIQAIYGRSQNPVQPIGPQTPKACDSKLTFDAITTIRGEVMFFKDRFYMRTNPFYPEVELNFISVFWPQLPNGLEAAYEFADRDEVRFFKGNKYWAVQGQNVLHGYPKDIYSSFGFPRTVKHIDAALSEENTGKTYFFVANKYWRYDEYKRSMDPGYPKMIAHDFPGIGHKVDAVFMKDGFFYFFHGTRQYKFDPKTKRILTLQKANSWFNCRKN
Test: cell-based or functional assay
*1 amine or outer side, *2 acyl side, *3 side chain or, on linkers, in order; H or OH if unused. [ ]: non-standard residue; d: D form. The star is where a group is joined. Dnp = O=[N+]([O-])c1ccc(*)c([N+](=O)[O-])c1; C(Me) = CSC[C@H](N[*:1])C(=O)[*:2]
result-type: Selectivity v. Coll-3 (unitless)
One number for each entry, in unitless.

Dnp-GPVNLHG[C(Me)]-NH2 (SMILES CSC[C@H](NC(=O)CNC(=O)[C@H](Cc1c[nH]cn1)NC(=O)[C@H](CC(C)C)NC(=O)[C@H](CC(N)=O)NC(=O)[C@@H](NC(=O)[C@@H]1CCCN1C(=O)CNc1ccc([N+](=O)[O-])cc1[N+](=O)[O-])C(C)C)C(N)=O) [Dnp-GPVNLHGC(Me)-NH2]
1390

We next turn to a different binder, shown below.
Lookup: Using the record for Dnp-GPRPFRG-NH2 (SMILES N=C(N)NCCC[C@H](NC(=O)[C@H](Cc1ccccc1)NC(=O)[C@@H]1CCCN1C(=O)[C@H](CCCNC(=N)N)NC(=O)[C@@H]1CCCN1C(=O)CNc1ccc([N+](=O)[O-])cc1[N+](=O)[O-])C(=O)NCC(N)=O) [Dnp-GPRPFRG-NH2] , state its measured Selectivity v. Coll-3.
Found: 4200
